Origin of measurements: ChEMBL document CHEMBL4296182

Tested on: Staphylococcus aureus
measurement.notes: Antibacterial activity against Staphylococcus aureus MRSA ATCC 43300 (CO-ADD:GP_020); MIC in CAMBH media using NBS plates, by Resazurin F(560/590)
Format: functional
condition.context: Concentration 20 uM, ASSAY_TEST Inhibition of Bacterial Growth, detection method Resazurin, Fluorescence (ex560/em590), MEDIA CAMHB, plate type 384well, CORNING #3640, time 18 hr
result.type: Inhibition (%)
Record the value in %, omitting the unit from your answer.

Below, each entry is followed by its recorded Inhibition result.
compound: FCCN(CCF)c1cccc(Cl)c1
recorded.measurement: 3.32
--
compound: CN1C2c3ccccc3C3C4c5ccccc5C(C31)C(C2[N+](=O)[O-])N4C (stereo not given)
recorded.measurement: 16.96
--
compound: CC(=O)Nc1cccc([As](=O)(c2cccc(NC(C)=O)c2)c2cccc(NC(C)=O)c2)c1
recorded.measurement: 0.93
--
compound: C1CC2NCCC3NCCC(N1)N32 (stereo not given)
recorded.measurement: 9.55
--
compound: O=C1CCCN1CC#CCN1CCCC1 [OXOTREMORINE]
recorded.measurement: -8.85

Kindly consider the entry below.
[Q] I have this compound here, O=C1/C(=C\c2ccccc2)C2OCC=C3CN4CCC56c7ccccc7N1C5C2C3CC46 (stereo not given) , and I need its recorded Inhibition.
[A] 33.46
